System: TK-10 renal
assay_procedure: NCI tumour cell line growth inhibition, 48 h

# compound, TGI
records = [
    ("NC1=Nc2ccccc2Sc2nccn21", "72.6 µM"),
    ("COC(=O)C(/C(=N/N)C(=O)Nc1cc(Cl)ccc1Cl)c1nc2ccc([N+](=O)[O-])cc2[nH]c1=O (centres undefined)", "> 100 µM"),
    ("Nc1ccc(C(=O)CC2(O)C(=O)Nc3ccccc32)cc1 (centres undefined)", "> 100 µM"),
    ("CO[C@H]1/C=C/O[C@@]2(C)Oc3c(C)c(O)c4c(O)c(c(/C=N/N5C(C)CN(Cc6ccc(C#N)cc6)CC5C)c(O)c4c3C2=O)NC(=O)/C(C)=C\\C=C\\[C@H](C)[C@H](O)[C@@H](C)[C@@H](O)[C@@H](C)[C@H](OC(C)=O)[C@@H]1C (some centres undefined)", "18.8 µM"),
    ("CCOc1ccc(Nc2ccnc3cc(Cl)ccc23)cc1", "> 100 µM"),
    ("CC(=O)OCCCCn1nncc1Cn1ccc(=O)n(Cc2cnnn2CCCCOC(C)=O)c1=O", "> 100 µM"),
    ("N/C(=C\\c1ccc(/C=C(\\NC(=O)c2ccccc2)c2nc3c([nH]2)C(=O)c2ccccc2C3=O)cc1)c1nc2c([nH]1)C(=O)c1ccccc1C2=O", "51.7 µM"),
    ("CCc1cc2c(cc1C(=O)CCC(=O)O)CC1(C2)Cc2cc(CC)c(C(=O)CCC(=O)O)cc2C1", "> 100 µM"),
    ("Cn1cnc(SC2=CC(=O)C=C3S[C@H]4C[C@@]23c2c(c(O)c3c5c2=NCCC=5C=N3)N4)c1CC(N)C(=O)O (some centres undefined)", "36.9 µM"),
]

----------
Quick list: TGI per entry.
Tested on: HCC-2998 colon
assay_procedure: NCI tumour cell line growth inhibition, 48 h

# compound, TGI
rows = [
    ("CCCCC1Nc2ccccc2-c2ccnc(Cl)c21 (stereo not given)", "69.4 µM"),
    ("C[C@H](CCC(=O)O)[C@H]1CC[C@H]2[C@@H]3[C@H](O)[C@H](O)[C@@H]4C[C@H](O)CC[C@]4(C)[C@H]3CC[C@]12C", "> 100 µM"),
    ("COC(=O)C(/C(=N/N)C(=O)Nc1cc(Cl)ccc1Cl)c1nc2ccc([N+](=O)[O-])cc2[nH]c1=O (stereo not given)", "> 100 µM"),
    ("CC1(C)N=C(N)N=C(N)N1c1cccc(CCCCc2ccc(Cl)c(S(=O)(=O)F)c2)c1", "16 µM"),
    ("CCOP(=O)(OCC)/C(=C\\n1ccc(=O)[nH]c1=S)C(=O)OC", "> 100 µM"),
    ("CCc1cc2c(cc1C(=O)CCC(=O)O)CC1(C2)Cc2cc(CC)c(C(=O)CCC(=O)O)cc2C1", "> 100 µM"),
    ("COc1ccc2c(c1)c1ccc3c(c1n2C)C(=O)C=CC3=O", "34.6 µM"),
    ("COc1ccc(N[C@H](CS(=O)c2ccc(C)cc2)C(F)(F)F)cc1 (stereo not given in full)", "> 100 µM"),
    ("COc1ccc(CC2Cc3ccccc3CC(=O)N2)cc1OC (stereo not given)", "> 100 µM"),
    ("C=CC(=C)CCC(Br)C(C)(C)Br (stereo not given)", "> 100 µM"),
]
